Data credit: paper PMC9911399

Molecular target: T1, RBFOX1 RRM (Homo sapiens, UniProt Q9NWB1 109-208)
T1 sequence: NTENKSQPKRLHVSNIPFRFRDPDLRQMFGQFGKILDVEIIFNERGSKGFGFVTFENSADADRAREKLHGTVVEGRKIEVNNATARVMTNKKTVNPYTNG
Assay: EMSA; HiTS-Eq, 1 nM pool, 10 min; buffer printed only for the single-RNA assays: 10 mM Tris pH 7.5, 150 mM NaCl, 3.4 mM EDTA, 0.001% NP-40, 30 C
Settings: tags: His6 N-terminal (pET28a); label: 5' 32P
In all, about 16,000 sequences were measured (“ka relative to ugcaugu”: median about 0.0091, highest 2% from about 0.032 on). What follows is part of a selection rich in the highest values, with near analogues and random picks from the rest.

binder: GGAUAGU (DNA:RNA) RNA: GGGAGACCGGAAUUCAGAUUGUCCGGAUAGUUUAAAUCCCGUCGUAGCCACCA DNA 1: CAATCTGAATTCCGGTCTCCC DNA 2: TGGTGGCTACGACGGGATT
binding signal: 0.0169 KA relative to UGCAUGU
--
binder: UGCAUCG (DNA:RNA) RNA: GGGAGACCGGAAUUCAGAUUGUCCUGCAUCGUUAAAUCCCGUCGUAGCCACCA DNA 1: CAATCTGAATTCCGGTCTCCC DNA 2: TGGTGGCTACGACGGGATT
binding signal: 0.0295 KA relative to UGCAUGU
--
binder: CGGAUUG (DNA:RNA) RNA: GGGAGACCGGAAUUCAGAUUGUCCCGGAUUGUUAAAUCCCGUCGUAGCCACCA DNA 1: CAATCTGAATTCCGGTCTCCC DNA 2: TGGTGGCTACGACGGGATT
binding signal: 0.0329 KA relative to UGCAUGU
--
binder: GUCGGAU (DNA:RNA) RNA: GGGAGACCGGAAUUCAGAUUGUCCGUCGGAUUUAAAUCCCGUCGUAGCCACCA DNA 1: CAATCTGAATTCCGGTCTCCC DNA 2: TGGTGGCTACGACGGGATT
binding signal: 0.00831 KA relative to UGCAUGU
--
binder: GUCGGGA (DNA:RNA) RNA: GGGAGACCGGAAUUCAGAUUGUCCGUCGGGAUUAAAUCCCGUCGUAGCCACCA DNA 1: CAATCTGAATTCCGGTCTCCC DNA 2: TGGTGGCTACGACGGGATT
binding signal: 0.0117 KA relative to UGCAUGU
--
binder: GGGAUAG (DNA:RNA) RNA: GGGAGACCGGAAUUCAGAUUGUCCGGGAUAGUUAAAUCCCGUCGUAGCCACCA DNA 1: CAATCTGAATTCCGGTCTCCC DNA 2: TGGTGGCTACGACGGGATT
binding signal: 0.0337 KA relative to UGCAUGU
--
binder: ACGUGCG (DNA:RNA) RNA: GGGAGACCGGAAUUCAGAUUGUCCACGUGCGUUAAAUCCCGUCGUAGCCACCA DNA 1: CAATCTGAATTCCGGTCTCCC DNA 2: TGGTGGCTACGACGGGATT
binding signal: 0.0166 KA relative to UGCAUGU
--
binder: CACCGGA (DNA:RNA) RNA: GGGAGACCGGAAUUCAGAUUGUCCCACCGGAUUAAAUCCCGUCGUAGCCACCA DNA 1: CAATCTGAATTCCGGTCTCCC DNA 2: TGGTGGCTACGACGGGATT
binding signal: 0.00389 KA relative to UGCAUGU
--
binder: GGCAAAG (DNA:RNA) RNA: GGGAGACCGGAAUUCAGAUUGUCCGGCAAAGUUAAAUCCCGUCGUAGCCACCA DNA 1: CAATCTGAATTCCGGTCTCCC DNA 2: TGGTGGCTACGACGGGATT
binding signal: 0.00447 KA relative to UGCAUGU
--
binder: GUCCGGA (DNA:RNA) RNA: GGGAGACCGGAAUUCAGAUUGUCCGUCCGGAUUAAAUCCCGUCGUAGCCACCA DNA 1: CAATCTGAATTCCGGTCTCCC DNA 2: TGGTGGCTACGACGGGATT
binding signal: 0.00347 KA relative to UGCAUGU
--
binder: CGCCUAC (DNA:RNA) RNA: GGGAGACCGGAAUUCAGAUUGUCCCGCCUACUUAAAUCCCGUCGUAGCCACCA DNA 1: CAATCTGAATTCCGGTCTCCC DNA 2: TGGTGGCTACGACGGGATT
binding signal: 0.00556 KA relative to UGCAUGU
--
binder: ACUCCAA (DNA:RNA) RNA: GGGAGACCGGAAUUCAGAUUGUCCACUCCAAUUAAAUCCCGUCGUAGCCACCA DNA 1: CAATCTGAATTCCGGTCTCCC DNA 2: TGGTGGCTACGACGGGATT
binding signal: 0.000959 KA relative to UGCAUGU
--
binder: GGAUUUG (DNA:RNA) RNA: GGGAGACCGGAAUUCAGAUUGUCCGGAUUUGUUAAAUCCCGUCGUAGCCACCA DNA 1: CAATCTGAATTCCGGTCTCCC DNA 2: TGGTGGCTACGACGGGATT
binding signal: 0.034 KA relative to UGCAUGU
--
binder: UUUAAUU (DNA:RNA) RNA: GGGAGACCGGAAUUCAGAUUGUCCUUUAAUUUUAAAUCCCGUCGUAGCCACCA DNA 1: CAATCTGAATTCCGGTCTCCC DNA 2: TGGTGGCTACGACGGGATT
binding signal: 0.00658 KA relative to UGCAUGU
--
binder: GUGCACG (DNA:RNA) RNA: GGGAGACCGGAAUUCAGAUUGUCCGUGCACGUUAAAUCCCGUCGUAGCCACCA DNA 1: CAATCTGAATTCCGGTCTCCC DNA 2: TGGTGGCTACGACGGGATT
binding signal: 0.62 KA relative to UGCAUGU
--
binder: GUGCGCC (DNA:RNA) RNA: GGGAGACCGGAAUUCAGAUUGUCCGUGCGCCUUAAAUCCCGUCGUAGCCACCA DNA 1: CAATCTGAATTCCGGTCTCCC DNA 2: TGGTGGCTACGACGGGATT
binding signal: 0.0184 KA relative to UGCAUGU
--
binder: CGGAUAG (DNA:RNA) RNA: GGGAGACCGGAAUUCAGAUUGUCCCGGAUAGUUAAAUCCCGUCGUAGCCACCA DNA 1: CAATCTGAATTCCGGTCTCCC DNA 2: TGGTGGCTACGACGGGATT
binding signal: 0.0228 KA relative to UGCAUGU
